study system: T1, UNK ZnF1-3 (human, UniProt Q9C0B0 31-174)
T1 sequence: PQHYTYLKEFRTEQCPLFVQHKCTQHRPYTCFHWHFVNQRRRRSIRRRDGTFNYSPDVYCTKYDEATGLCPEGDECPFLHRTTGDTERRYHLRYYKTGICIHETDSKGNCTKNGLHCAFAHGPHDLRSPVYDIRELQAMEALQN
assay name: nsRBNS (natural sequence RNA bind-n-seq); RBNS binding buffer (assumed for nsRBNS): 25 mM Tris pH 7.5, 150 mM KCl, 3 mM MgCl2, 0.01% Triton X-100, 500 ug/ml BSA, 20 U/ml SUPERase-In, 4 C; UNK is unkempt and MSI1 is Musashi-1; names of the RNAs are library labels; protein concentration not given here; high values mean tight binding
In all, about 24,000 sequences were measured (“enrichment r”: median about 0.99, highest 2% from about 3.7 on). The full list was thinned out, with the highest values kept by preference.
measurement name: binding signal (enrichment R)
Write the answer as a number in enrichment R, unit excluded.

Recorded binding signal, per entry:
• chr1:163295886:163295887:+_ENSG00000143228_ENST00000271452|hu_mus|motif|central (ssRNA) RNA: GGGAGUUCUACAGUCCGACGAUCGGUUUUUGCCAUCUGCUCCUGUUAAUAAUUUAUUGCGAAUAUGAACCACAAGCUCAGCGGCAUUGUAUCUGGGGAAUGACAAAGUUUCCAUUAUGGGAGUCUCCUCCCUGAGUAUUGUUGCAACAGAGGAUUGAGCAUCA = 1.12
• chr7:54825262:54825263:-_ENSG00000132432_ENST00000352861|hu_hu|hu_hu_hu_mus_False|68_108 (ssRNA) RNA: GGGAGUUCUACAGUCCGACGAUCCUGACUUGGCUCAUCCACAAACUGCAUUACCUGAUCCAUGUUUUACCCAACCGGGAUUGAGAGCGUAGAGACACGUAGCUCAGGAGAGAACCGAGCCCAACGGAACCGGAAGCUGGCAACCAACAGAGGAUUGAGCAUCA = 1.72
• chr2:158287933:158287934:+_ENSMUSG00000027652_ENSMUST00000141497|mus_hu|FALSE|FALSE (ssRNA) RNA: GGGAGUUCUACAGUCCGACGAUCAAGAGGUUGUUCCAGCAUUGCCAGGAUGACACUGUUAUCCAAGACAAAGUACCGGAAACUAUGCUUGUUUAUGGUUGGCAGCCUGGAGUAUUUAAUCAAAGUGGUCUCAUUCACAAGACUCAACAGAGGAUUGAGCAUCA = 0.695

Then this binder:
Record chr5:145543945:145543946:-_ENSG00000133706_ENST00000545646|hu_hu|hu_hu_hu_mus_True|48_48 (ssRNA) RNA: GGGAGUUCUACAGUCCGACGAUCCUGAACGGCCAGUGGUGGGAAAUAAUCAAGCCAGUGCUCUGCUUCAGAAAACUUCACUAUGUCUUCAUCAGACAGCCCAAGGGAUUUCAUAAUGUCCCACUGGUACUUAGAAGAUCCUGCCAACAGAGGAUUGAGCAUCA . Reported binding signal: 1.07
